Target: A2AR (Homo sapiens)
Sequence (P29274 whole entry): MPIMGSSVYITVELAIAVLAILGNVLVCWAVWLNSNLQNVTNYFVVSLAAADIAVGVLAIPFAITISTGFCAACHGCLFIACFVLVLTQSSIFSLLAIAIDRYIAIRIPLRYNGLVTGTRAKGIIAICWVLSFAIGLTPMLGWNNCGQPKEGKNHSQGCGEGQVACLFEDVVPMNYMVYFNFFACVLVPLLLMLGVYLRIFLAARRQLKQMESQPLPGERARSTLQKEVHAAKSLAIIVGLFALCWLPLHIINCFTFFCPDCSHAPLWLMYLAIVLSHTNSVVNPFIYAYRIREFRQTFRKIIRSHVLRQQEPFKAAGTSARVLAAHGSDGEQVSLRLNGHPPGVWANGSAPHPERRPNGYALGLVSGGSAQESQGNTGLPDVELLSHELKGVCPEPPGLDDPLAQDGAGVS
MEASURE NAME: Ki (nM)
Numbers only, in nM.

// Ki lookup, key: Cn1c(-n2nccn2)nc2c(N)nc(CCC3CCCCC3)nc21 [Compound 8]
1.2
